# Test system: K. pneumoniae ATCC43816
# Assay Overview: Minimum Inhibitory Concentration (MIC) determination, K. pneumoniae ATCC43816
# Type: cell-based
# Parameters: unit not given here
# Condition: LB broth, 5×10^5 CFU/ml, 37° C., 18 hours, scored by eye
Bridge positions count the residues as written; N and C are the ends. Square brackets hold non-standard residues; d marks the D form. Peptide text beside a SMILES is read from it. d1Nal = N[C@H](Cc1cccc2ccccc12)C(=O)O; dHis(π-Me) = Cn1cncc1C[C@@H](N)C(=O)O; dNMeY = CN[C@H](Cc1ccc(O)cc1)C(=O)O; dAbu = CC[C@@H](N)C(=O)O
I'd be grateful if you could share measured MIC K. pneumoniae ATCC43816 Wuxi::MIC for these entries.

What MIC K. pneumoniae ATCC43816 Wuxi::MIC value was documented for this compound, CC[C@H]1NC(=O)[C@@H](Cc2ccccc2)NC(=O)CSC[C@H](C(=O)NCC(N)=O)NC(=O)[C@@H](Cc2cncn2C)NC(=O)[C@@H](CCCNC(=N)N)NC(=O)[C@@H](Cc2c[nH]cn2)NC(=O)[C@@H](Cc2ccc(O)cc2)N(C)C(=O)[C@@H](CCCNC(=N)N)NC(=O)[C@@H](CO)NC(=O)[C@@H](CCCNC(=N)N)NC(=O)[C@@H](Cc2c[nH]cn2)NC(=O)[C@@H](Cc2cccc3ccccc23)NC1=O [Compound 28] ({CH2CO}-[dF][dAbu][d1Nal][dH][dR][dS][dR][dNMeY][dH][dR][dHis(π-Me)][dC]G-NH2; thioether N-12) ?
3.1

Report MIC K. pneumoniae ATCC43816 Wuxi::MIC for CC[C@H](C)[C@@H]1NC(=O)[C@H](Cc2ccccc2)NC(=O)CSC[C@@H](C(=O)NCC(N)=O)NC(=O)[C@H](Cc2cncn2C)NC(=O)[C@H](CCCNC(=N)N)NC(=O)[C@H](Cc2cnc[nH]2)NC(=O)[C@H](Cc2ccccc2)N(C)C(=O)[C@H](CCCNC(=N)N)NC(=O)[C@H](CO)NC(=O)CNC(=O)[C@H](Cc2cnc[nH]2)NC(=O)[C@H](Cc2c[nH]c3ccccc23)NC1=O (racemic) [Compound 15] please.
75

###

# Test system: E. coli BW25113
# Assay Overview: Minimum Inhibitory Concentration (MIC) determination, E. coli BW25113
# Type: cell-based
# Design: unit not given here
# Condition: LB broth, 5×10^5 CFU/ml, 37° C., 18 hours, scored by eye
Experimental Endpoint: MIC E. coli BW25113 WUXI::MIC
Number only, please.

Test system E. coli BW25113; read-out MIC E. coli BW25113 WUXI::MIC; what value for CC[C@H](C)[C@@H]1NC(=O)[C@H]([C@@H](C)O)NC(=O)[C@H](Cc2cncn2C)NC(=O)[C@H](Cc2ccccc2)NC(=O)CSC[C@@H](C(=O)NCC(N)=O)NC(=O)[C@H](Cc2ccc(O)cc2)NC(=O)[C@H](Cc2ccc(Cl)cc2)NC(=O)[C@H](Cc2ccc(O)cc2)NC(=O)[C@H](CCCNC(=N)N)NC(=O)[C@H](Cc2ccccc2)NC(=O)C(C)(C)NC(=O)[C@H](CO)NC(=O)[C@H](CCCCN)NC(=O)[C@H](CCCNC(=N)N)NC1=O (mixture of isomers) [Compound 60] ?
16

Kindly state the measured MIC E. coli BW25113 WUXI::MIC obtained for CC[C@@H](C)[C@H]1NC(=O)[C@@H](Cc2ccccc2)NC(=O)CSC[C@H](C(=O)NCC(N)=O)NC(=O)[C@@H](Cc2cncn2C)NC(=O)[C@@H](CCCNC(=N)N)NC(=O)[C@@H](Cc2cnc[nH]2)NC(=O)[C@@H](Cc2ccccc2)N(C)C(=O)[C@@H](CCCNC(=N)N)NC(=O)[C@@H](CO)NC(=O)CNC(=O)[C@@H](Cc2cnc[nH]2)NC(=O)[C@@H](Cc2cccc3ccccc23)NC1=O (racemic) [Compound 17] with E. coli BW25113.
50

Lab request: please report MIC E. coli BW25113 WUXI::MIC under test system E. coli BW25113 for CC[C@@H]1NC(=O)[C@H](Cc2ccccc2)NC(=O)CSC[C@@H](C(=O)NCC(N)=O)NC(=O)[C@H](Cc2cncn2C)NC(=O)[C@H](CCCNC(=N)N)NC(=O)[C@H](Cc2cnc[nH]2)NC(=O)[C@H](Cc2ccc(O)cc2)N(C)C(=O)[C@H](CCCNC(=N)N)NC(=O)[C@H](CO)NC(=O)CNC(=O)[C@H](C)NC(=O)[C@H](Cc2cccc3ccccc23)NC1=O (stereo in doubt) [Compound 35]
100
